molecular target: human EGFR (d746-750/T790M/C797S) (Homo sapiens, UniProt P00533, C797S/DEL746-750/T790M); construct: made in house; host or cells: Sf9 insect cells, baculovirus; assay: Inhibitory activity against EGFR (d746-750/T790M/C797S) kinase; type: biochemical; conditions: Test Example 1, Table 2; ATP 6 μM, 25° C., 120 minutes
Sequence (P00533 with tags, fused parts or gaps DEL746-750/T790M/C797S): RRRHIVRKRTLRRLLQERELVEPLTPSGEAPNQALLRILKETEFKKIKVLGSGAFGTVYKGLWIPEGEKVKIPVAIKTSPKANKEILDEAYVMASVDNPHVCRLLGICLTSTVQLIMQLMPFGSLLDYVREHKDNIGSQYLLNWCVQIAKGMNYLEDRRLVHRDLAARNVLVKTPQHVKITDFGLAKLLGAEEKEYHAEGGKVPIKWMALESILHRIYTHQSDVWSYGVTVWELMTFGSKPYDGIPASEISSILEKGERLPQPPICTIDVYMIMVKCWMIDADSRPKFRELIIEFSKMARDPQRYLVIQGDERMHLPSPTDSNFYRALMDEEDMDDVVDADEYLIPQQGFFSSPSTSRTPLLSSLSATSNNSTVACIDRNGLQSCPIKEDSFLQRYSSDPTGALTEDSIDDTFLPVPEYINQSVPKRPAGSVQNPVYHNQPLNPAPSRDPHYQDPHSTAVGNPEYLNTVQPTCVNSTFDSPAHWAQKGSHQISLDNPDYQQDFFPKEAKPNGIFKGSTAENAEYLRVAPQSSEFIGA
measured endpoint: IC50

                                    compound  measured_endpoint  observed_measurement
 0  C#Cc1c(-c2cnc3ccccc3c2)c2c(N)ncnc2n1C12CCC(N3CCN(C)C(=O)C3)(CC1)C2               IC50                320 pM
 1  C#Cc1c(-c2cnc3ccccc3c2)c2c(N)ncnc2n1C12CCC(NC(=S)N3CC4(CN(C)C4)C3)(CC1)CC2               IC50              < 300 pM
 2  C#Cc1c(-c2cnc3ccccc3c2)c2c(N)ncnc2n1C12CCC(NC(=O)c3cnccc3OC)(CC1)C2               IC50              < 300 pM
 3  C#Cc1c(-c2cnc3ccccc3c2)c2c(N)ncnc2n1C12CCC(N(C)C(=O)c3cnc(C)cn3)(CC1)C2               IC50              < 300 pM
 4  C#Cc1c(-c2cnc3ccccc3c2)c2c(N)ncnc2n1[C@@H]1CCN(C(=O)C=C)C1 [Comparative Example B, reference compound]               IC50              26000 pM
 5  C#Cc1c(-c2cnc3ccccc3c2)c2c(N)ncnc2n1C12CCC(NC(=O)c3ccnn3-c3ccccc3)(CC1)C2               IC50              < 300 pM
 6  C#Cc1c(-c2cnc3ccccc3c2)c2c(N)ncnc2n1C12CCC(NC(=O)CN(C)C)(CC1)CC2               IC50              < 300 pM
 7  C#Cc1c(-c2cnc3ccccc3c2)c2c(N)ncnc2n1C12CCC(NC(=O)c3ccc4ncnn4c3)(CC1)C2               IC50              < 300 pM
 8  C#Cc1c(-c2cnc3ccccc3c2)c2c(N)ncnc2n1C12CCC(CN(C)C)(CC1)C2               IC50              < 300 pM
 9  C=CC(=O)N1CC[C@@H](n2cc(-c3cnc4ccccc4c3)c3c(N)ncnc32)C1 [Comparative Example A, reference compound]               IC50             142000 pM
10  C#Cc1c(-c2cnc3ccccc3c2)c2c(N)ncnc2n1C12CCC(CNC(=O)c3cnc(C)cn3)(CC1)C2               IC50              < 300 pM
11  C#Cc1c(-c2cnc3ccccc3c2)c2c(N)ncnc2n1C12CCC(NC(=O)C(F)F)(CC1)C2               IC50              < 300 pM
12  C#Cc1c(-c2cnc3ccccc3c2)c2c(N)ncnc2n1C12CCC(NC(=O)c3cnc(C)cn3)(CC1)C2               IC50              < 300 pM
13  C#Cc1c(-c2cnc3ccccc3c2)c2c(N)ncnc2n1C12CCC(N(C)C(=O)c3ncco3)(CC1)C2               IC50              < 300 pM
